Sourced from the nanobody polyreactivity screen of Harvey et al. (2022)

assay: yeast display, Sf9 membrane polyspecificity reagent, FACS + sequencing; frameworks hold sequencing errors

[
  {
    "QUERY_SEQUENCE": "QVQLVESGGGLVQAGGSLRLSCAASGYTFGVYVMGWYRQAPGKERELVAAISGSTYYADSVKGRFTISRDNAKNTVYLQMNSLKPEDTAVYYCAAESYFFSPRTREKFDYWGQGTQVTVTS",
    "polyreactivity (PSR sort gate)": "low polyreactivity"
  },
  {
    "QUERY_SEQUENCE": "QVQLVESGGGLVQAGGRLRLSCAASGRTFYWYAMGWYRQAPGKETELVAAISSGGSTYYADSVKGRFTISRDNAKNTVYLQMNSLKPEDTAVYYCAAVTPSGAHRSAYHPISDYWGQGTQVTVSS",
    "polyreactivity (PSR sort gate)": "low polyreactivity"
  },
  {
    "QUERY_SEQUENCE": "QVQLVESGGGLVQAGGSLRLSCAASGRIYSRYAMGWYRQAPGKERELVAAISASGGSTYYADSVKGRFTISRDNAKNTVYLQMNSLKPEDTAVYYCNAYQTSTPLFPGYGYWGQGTQVTVSS",
    "polyreactivity (PSR sort gate)": "low polyreactivity"
  }
]

----------
assay: yeast display, Sf9 membrane polyspecificity reagent, FACS + sequencing; frameworks hold sequencing errors

[
  {
    "QUERY_SEQUENCE": "QVQLVESGGGLVQAGGSLRLSCAASGSITYLYAMGSYRQAPGKERELLASITWSGGSTYYADSVKGRFTISRDNAKNTVYLQMNSLKPEDTAVYDCAALYQPFPWTWDGYYWGQGTQVTVSS",
    "polyreactivity (PSR sort gate)": "low polyreactivity"
  },
  {
    "QUERY_SEQUENCE": "QVHLEESGGGLVQAGGSLRLSCAASGFTFHNNVMGWYRQAPGKERELVATISKSGGSTYYADSVKGRFTISRDNAKNPVYLQMKSLKPEDTAVYYSARRYRDYRRYAYWGQGTQVTVSS",
    "polyreactivity (PSR sort gate)": "high polyreactivity"
  },
  {
    "QUERY_SEQUENCE": "QVQLVESGGGLVQAGGSLRLSCAASGSTFSYYAMGGYRQEPGKERELVAAISRGTRTYYADSVKGSFSISRDNAKNTVYLLMNSLKAEDTAVYYCAADLWYTRYYYWGQGTQVTVSS",
    "polyreactivity (PSR sort gate)": "high polyreactivity"
  },
  {
    "QUERY_SEQUENCE": "QVQLQESGGGLVQAGGSLRLSCAASGNIVDADIMGWYRQEPGKERELVASITDGGSTNYADSVKGRFTISRDNAKNTVYLQMNSLKPEDTAVYYCAAIAYPDIPTYFDYDSEYFYWGQGTQVTVSS",
    "polyreactivity (PSR sort gate)": "low polyreactivity"
  },
  {
    "QUERY_SEQUENCE": "QVQLVESGGGLVQAGGSLRLSCAASGSIFRAYAMGWDRQAPGKERELVATISGSGGSRSYADSVKGRFTISRDNAKNTVDLQMNSLKPEDTAVYYCARDRYYKYTSYDYWGQGTQVTVSA",
    "polyreactivity (PSR sort gate)": "low polyreactivity"
  },
  {
    "QUERY_SEQUENCE": "QVQVVESGGGLVQAGGSLRLSCAASGSIFHAYTMGWSRQAPGKERELVAAISRGDRTYYADSVKGRFTISRDNAKNTVSLQMNSLKPEDTAVYYCNRDRYRYDSWGQGTQLTVSS",
    "polyreactivity (PSR sort gate)": "high polyreactivity"
  },
  {
    "QUERY_SEQUENCE": "QVQLVESGGGLVQAGGSLRLSCAASGSIFNRYAMGWYRQAPGKEREFVARISKRGGGTYYADSVKGRFTISRDNAKNTVYLQMNSLKPEDTAGYYCNAGVPSAMDYWGQGTQVTVSS",
    "polyreactivity (PSR sort gate)": "high polyreactivity"
  },
  {
    "QUERY_SEQUENCE": "QVQLVESGGGLVQAGGSLRLSCAASGSTFLPYAMGWYRQAPGKERELVAAIRWSVGSTYYADSVKGRFTISRDNAKNTVYLQMNSLIPEVTAGYYCYAVVYVVGDFDYWGQGSQVTVSS",
    "polyreactivity (PSR sort gate)": "high polyreactivity"
  },
  {
    "QUERY_SEQUENCE": "QVQLVESGGGLVQAGGSLRLSCAASGSIFDDYAMGWYRQATGKERQLVAAISSSGTSTYYADSVKGRFTISRDNAKNTVYLQMNSLKPEDTAVYYCAARSAILKSGYLMDYWGQGTQVTVSS",
    "polyreactivity (PSR sort gate)": "low polyreactivity"
  },
  {
    "QUERY_SEQUENCE": "QVQLVESGGGLVQAGGSLRLSCAASGFTFGSNTMGWYRQAPGKERELVAAITTSGDSTYYADSVKGRFTISRDTAKNTVYLQMNSLKPEDTAVYYCAAERRYGRYYRLVRLLGQGTQVTVSS",
    "polyreactivity (PSR sort gate)": "high polyreactivity"
  },
  {
    "QUERY_SEQUENCE": "QVQLVESGGGLVQAGGSLRLICAASGSIFTPNALGWYRPAPGKERELVAAISSSSDRTYYADSVKGRFTISRDNAKNSVFLLMNSLKPEDTAVYYCAAYAQKRYYWGQGTQVTVSS",
    "polyreactivity (PSR sort gate)": "high polyreactivity"
  },
  {
    "QUERY_SEQUENCE": "QVQLVESGGGLVQAGGSLRLSCAASGSIFDIYAMGWYRQAPGKERELVASIRRRGGSTYYADSVKGRFTISRDNAKNTVYLQMNSLKPEDTAVYYCNARRVWLRTTGTNWPERGYWGQGTQVTVSS",
    "polyreactivity (PSR sort gate)": "high polyreactivity"
  },
  {
    "QUERY_SEQUENCE": "QLQLVESGGGLVQAGGSLRLSCAASGSTVAYNDMGWYRQAPGKERELVADIRSGGNTNYADSVKGRFTISRDNAKNTVYLQMNSLKTEDTAVYYCATDGYRIDVYHPDYRYDYWGQGTQVTVSS",
    "polyreactivity (PSR sort gate)": "low polyreactivity"
  },
  {
    "QUERY_SEQUENCE": "QVQLQESAGGLVQAGGSLRQSCEASGYIIPYYSMGWYRQSPGKERGLVACIAAGTTTNYADSVNGRFTISRDNEKNTVYLQMNSLNPEDAAVYFCAALNAFNTGHWYWGQGTQVTVSS",
    "polyreactivity (PSR sort gate)": "low polyreactivity"
  },
  {
    "QUERY_SEQUENCE": "QVQLVESGGGLVQAGGSLRLSCAASGITFSRNGMGWYRQAPGKERELVAAISTSGDSTDYADSVKGRFTISRDNAKNTVYLQMNSLKPEDTAVYYCAASYAFLYYGYDSWGQGTQVTVSS",
    "polyreactivity (PSR sort gate)": "low polyreactivity"
  },
  {
    "QUERY_SEQUENCE": "QVQLVESGGGLVQAGGSLRLSCAAYGSTFWANAMGWYRQAPGKERELVAAIRGTGGSTYADSVKGRFTISRDNAKNTVYLQMNSLKPEDTAVYYCNAKGRGWTAQYDYWGQGTQVTVSS",
    "polyreactivity (PSR sort gate)": "low polyreactivity"
  },
  {
    "QUERY_SEQUENCE": "QVQLVESGGGLVQAGGSLRLSCAASGFTFYRNAMGWYRQAPGKERELVAAISRGGRTYYADSVKGRFTISRDNAKNTVYLQMNSLKPEDTAVYYCAVGYSGYGSSMDYWGQGTQVTVSS",
    "polyreactivity (PSR sort gate)": "high polyreactivity"
  },
  {
    "QUERY_SEQUENCE": "QVQLVESGGGLVQAGGSLRLSCAASGSTFGAYAMGWYRQAPGKERELVAAISSSDGSTYYADSVKGRFTISRDTAKNTVYLQMNSLKPEDTAVYYCAAEYYSAVYIDEYWYDYWGQGTQVTVSS",
    "polyreactivity (PSR sort gate)": "high polyreactivity"
  },
  {
    "QUERY_SEQUENCE": "QVQLVESGGGLVQAGGSLRLICAASGRTFRSNDMGWYRQAPGKERELVAANSLGTGTTYYADSVKGRFTISRDNAKNTVYLQMNSLKPEDTAVYYCHTDYRPIDTEYTSGYDYWGQGTQVTVSS",
    "polyreactivity (PSR sort gate)": "low polyreactivity"
  },
  {
    "QUERY_SEQUENCE": "QVQLVESGGGLVQAGGRLRLSCAASGSIFYRNAMGWYRQAPGKERELVAAIRYSGDNTYYADSVKGRFTISRDNAKNTVYLQMNSLKPEDTAVYYCAADFPDYEYWGQGTQVTVSS",
    "polyreactivity (PSR sort gate)": "high polyreactivity"
  },
  {
    "QUERY_SEQUENCE": "QVQLVESGGGLVQAGGSLRLSCAASGRTFSGYAMGWYRQAPGTERELVAAIDRGDGTNYADSVKGRFTISRDNAKNTVYLQMNSLKPEDTAVYYCAADYSYGSTSHTYTGFDYWGQGTQVTVSS",
    "polyreactivity (PSR sort gate)": "low polyreactivity"
  }
]
